- Assay explanation: yeast display, Sf9 membrane polyspecificity reagent, FACS + sequencing; frameworks hold sequencing errors
Measure: polyreactivity (PSR sort gate)

Please review the entries below; each comes with its answer.
# Input sequence, Measure, Value observed
records = [
    ("QVQLVESGGGLVQAGGSLRISSAASGRTFATYVMGWYRQAPGKERELVASITRGGSTNYADSVKGRFTISRDNAKNTVYLQMNSLKPEDTAVYYCAASFLATYDYWGLGTQVTVSS", "polyreactivity (PSR sort gate)", "low polyreactivity"),
    ("QVQLVESGGGLVQAGGSLRLSCAASGYLIGGNAMGWYRQAPGKERELVAVISSRAGRTYYADSVKGRFTISRDNAKNTVYLQMNSLKPEDTAVYYCNRVFSYQYKRDYWGQGTQVTVSS", "polyreactivity (PSR sort gate)", "high polyreactivity"),
    ("QVQLVESGGGLVKAGGSLRLRGAASGSIFGRYAMGWYRQAPGKERELVAAISKNGGSTYYADSVKGRFTISRDNAKNTVYLQMNILKPEDTAVYYCNTVRYSGNYRDQEGDYWGQGTQVTVSS", "polyreactivity (PSR sort gate)", "high polyreactivity"),
    ("QVQLVESGGGLVQAGGSLRLSCAASGRTFRYYAMGWYRQAPGKERELVAAITSSGDSTYYADSVKGRFTISRDNAKNTVYLQMNSLKPEDTAVYYCAAGQPLFYDAEYGYWGQGTQVNVSS", "polyreactivity (PSR sort gate)", "low polyreactivity"),
    ("QVQLVESGGGLVQAGGSLRLSCAASGFTFPWYAMGWDRQAPGKERELVASISYRGDSTYYADSVKGRFTFSRDNAKNTVYLQMNSLKPEDTAVYYCNKRLASYYLPGFDYWGQGTQVSVSS", "polyreactivity (PSR sort gate)", "low polyreactivity"),
]

Please fill in: polyreactivity (PSR sort gate) reported for QVQLEESGGGLVQAGGSLRLSCAASGSTFWYYAMGWYRPAPGKERELVAALSRSTGSTYYADSVKGRFTISRDNAKNTVYLQMNSLKPEDTAVYYCAADSYDWWQYTTSVHFDYYWGQGTQVTVSS = low polyreactivity

Please fill in: polyreactivity (PSR sort gate) reported for QVQLVESGRGLVQAGGSLRLSCAASGFTFKSYAKGWYRHATGKVRELVAAISRGTSTKYADSVKGRFTISRDNAKNTVYLQMNSLKPEDSAVYNCAALFPTSDLRLRYYRYDYWGQGTQVTVSS = low polyreactivity

Please fill in: polyreactivity (PSR sort gate) reported for QVQLEESGGGLVQAGGSLRLSCAASGSIFSYNSMGWYRQAPGKDREFVATIDWRDGSTYYADSVKGRFTISRDNGKNTVYLQMNSMKPEDTAVYYCATDYIVVEDYYWGQGTQVTVSS = high polyreactivity

Please fill in: polyreactivity (PSR sort gate) reported for QVQLVESGGGLVQAGGSLRLSCAASGRTFWPNAMGWYRQAPGKERELVAGIDWSGGSTYYADSVKGRFTISRDNAKNTVYLQMNSLKPEDTAVYYCNKVYYSYIPSTYGYWGQGTQVTVSS = high polyreactivity

Please fill in: polyreactivity (PSR sort gate) reported for QVQLVESGGGLVQAGGSLRLSCAASGSTFRYNAMGWYRQARGKERELVGGITSSGGTYAHSVKGRFTISRDNAKNTVYLQMNSLKPEDTAVYYCNALGVQDEFDYWGQGTQVTVSS = low polyreactivity

Please fill in: polyreactivity (PSR sort gate) reported for QVQLVESGGGLVQAGGSLRLSCAASGRILLTYAMGWYRQAPGKERELVAAISSDSRTYYADSVKGRFTISRDNAKNTVYLQMNSLKPEDTAVYYCVRRRYKYDYWGQGTQVTVSS = low polyreactivity

These measurements were taken from the nanobody polyreactivity screen of Harvey et al. (2022).
